Numbers sourced from paper PMC6274048.

- target-under-test: α-glucosidase enzyme (type 1 from Baker's yeast) (Saccharomyces cerevisiae, UniProt P53341)
- Sequence (P53341 whole entry): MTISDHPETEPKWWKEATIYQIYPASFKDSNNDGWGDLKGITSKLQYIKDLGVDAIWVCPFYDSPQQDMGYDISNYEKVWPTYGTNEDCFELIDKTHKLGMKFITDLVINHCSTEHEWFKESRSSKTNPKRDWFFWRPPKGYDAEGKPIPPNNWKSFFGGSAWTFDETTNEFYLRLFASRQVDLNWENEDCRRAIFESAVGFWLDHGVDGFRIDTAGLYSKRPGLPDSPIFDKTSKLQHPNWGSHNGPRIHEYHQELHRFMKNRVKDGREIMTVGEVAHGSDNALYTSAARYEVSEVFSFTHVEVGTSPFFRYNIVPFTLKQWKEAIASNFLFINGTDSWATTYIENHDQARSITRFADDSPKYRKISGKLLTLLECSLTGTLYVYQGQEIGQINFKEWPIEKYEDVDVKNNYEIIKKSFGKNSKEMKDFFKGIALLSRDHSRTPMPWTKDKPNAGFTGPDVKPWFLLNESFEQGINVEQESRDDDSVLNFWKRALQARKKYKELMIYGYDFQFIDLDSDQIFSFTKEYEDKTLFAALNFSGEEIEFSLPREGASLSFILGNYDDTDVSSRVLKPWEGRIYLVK
- experimental-protocol: α-Glucosidase inhibitory assay (p-nitrophenyl-α-D-glucopyranoside substrate, absorbance at 405 nm)
- Assay type: biochemical
- cond: α-glucosidase inhibition; same IC50 in molar units; read-out: IC50
readout-name: pIC50
One number for each entry, as −log10 of the molar value.

Please report the recorded pIC50 for O=C(O)c1ccc(O)cc1O [2,4-DHBA, 2,4-Dihydroxybenzoic acid] .
2.45

----------
- target-under-test: α-glucosidase enzyme (type 1 from Baker's yeast) (Saccharomyces cerevisiae)
- experimental-protocol: α-Glucosidase inhibitory assay (p-nitrophenyl-α-D-glucopyranoside substrate, absorbance at 405 nm)
- Format: biochemical
- cond: Concentration: 1 mg/mL; Means ± SD, n = 3
readout-name: inhibition at 1000 µg/mL (%)
Answers are plain numbers, in %.

Worked examples follow.
- molecule: "C[C@H]1O[C@H](O[C@H]2[C@H](O)[C@@H](O)[C@@H](O[C@H]3[C@H](O)[C@@H](O)C(O)O[C@@H]3CO)O[C@@H]2CO)[C@H](O)[C@@H](O)[C@@H]1N[C@H]1C=C(CO)[C@@H](O)[C@H](O)[C@H]1O (some centres unmarked) [Acarbose, reference compound]"
  inhibition at 1000 µg/mL, %: 90.9
- molecule: "COc1cc2ccc(=O)oc2cc1O [Scopoletin]"
  inhibition at 1000 µg/mL, %: 34.5
- molecule: "O=c1c(O)c(-c2ccc(O)c(O)c2)oc2cc(O)cc(O)c12 [Quercetin]"
  inhibition at 1000 µg/mL, %: 84.5

Please report inhibition at 1000 µg/mL for every entry that follows.
1. COC(=O)C1=CO[C@@H](O[C@@H]2O[C@H](CO)[C@@H](O)[C@H](O)[C@H]2O)[C@@H]2[C@@H](C)[C@@H](O)C[C@H]12 [Loganin]
2. O=C(O)c1ccc(O)cc1O [2,4-DHBA, 2,4-Dihydroxybenzoic acid]

44.9
78.8
